Assay Explanation: physchem
Assay type: physicochemical
Condition Set: 20 °C, water

Molecular String	solubility
O=C1C=C(N(Cc2ccc(Cl)nc2)CC(F)F)CO1	≥ 10 µg/mL

* * *

Assay Explanation: physchem
Format: physicochemical
Condition Set: at 20° C.; stated as meeting the definition of water-soluble; read-out: solubility in water

Molecular String	solubility
C/C(=N\C#N)N(Cc1ccc(Cl)nc1)CC(F)F	≥ 10 µg/mL
